Values of Ki for Sodium-dependent serotonin transporter (Rattus norvegicus, UniProt P31652), collected from a number of published sources:
Measure: Ki (nM)

Answered examples (6):
[[record]]
molecule = "c1ccc(C2CN3CCCC3c3cc(OCCCN4CCCCC4)ccc32)cc1 (racemic)"
system = "Sodium-dependent serotonin transporter (Rattus norvegicus, UniProt P31652)"
endpoint_unit = "nM"
reported_value = 2

[[record]]
molecule = "Cc1ccc2c3c(ccc2n1)OC[C@H](CN1CCN(c2ccc4cc(C(N)=O)ccc4n2)CC1)O3"
system = "Sodium-dependent serotonin transporter (Rattus norvegicus, UniProt P31652)"
endpoint_unit = "nM"
reported_value = 17

[[record]]
molecule = "N#Cc1ccc2[nH]cc([C@H]3CC[C@@H](N4CCN(c5cccc6cccnc56)CC4)CC3)c2c1"
system = "Sodium-dependent serotonin transporter (Rattus norvegicus, UniProt P31652)"
endpoint_unit = "nM"
reported_value = 1.3

[[record]]
molecule = "O=C1CC(c2c[nH]c3ccccc23)C(=O)N1CCCCN1CCC(c2c[nH]c3ccccc23)CC1 (racemic)"
system = "Sodium-dependent serotonin transporter (Rattus norvegicus, UniProt P31652)"
endpoint_unit = "nM"
reported_value = 5.7

[[record]]
molecule = "COc1ccc(C2CN(C)Cc3cc(OCCCN4CCN(c5ccncc5)CC4)ccc32)cc1 (configuration not stated)"
system = "Sodium-dependent serotonin transporter (Rattus norvegicus, UniProt P31652)"
endpoint_unit = "nM"
reported_value = 5.3

[[record]]
molecule = "COc1ccc2[nH]cc(C3CCCN(CCCCn4c(=O)c(-c5ccc(F)cc5)c5ccccn5c4=O)C3)c2c1 (configuration not stated)"
system = "Sodium-dependent serotonin transporter (Rattus norvegicus, UniProt P31652)"
endpoint_unit = "nM"
reported_value = 192


a = C[C@@H]1CN(CCCN(c2ccccc2)c2ccccc2)C[C@@H](C)N1
b = CCCN(CCCc1c[nH]c2ccc(F)cc12)[C@@H]1COc2c(F)ccc(C(N)=O)c2C1
Task: For this pair, a and b , which shows a numerically higher Ki? Record your answer as the label of the chosen record.
Output: a
(a: 70900 nM, b: 4.7 nM)

I = O=c1c(-c2ccc(F)cc2)c2ccccn2c(=O)n1CCCCN1CC=C(c2c[nH]c3ccc(Cl)cc23)CC1
II = COc1ccc(C2CN(C)Cc3cc(OCCCN4CCN(C(C)=O)CC4)ccc32)cc1 (configuration not stated)
III = NC(=O)c1ccc(F)c2c1C[C@H](N(CCCc1c[nH]c3ccc(F)cc13)CC1CC1)CO2
Task: Ascending sort, Ki. List the labels according to the requested ordering.
Output: III, II, I

A = Fc1ccc2[nH]cc([C@H]3CC[C@@H](N4CCN(c5cccc6ccccc56)CC4)CC3)c2c1
B = O=c1c(-c2ccccc2)c2ccccn2c(=O)n1CCCCN1CCC(c2c[nH]c3ccc(F)cc23)CC1
C = O=c1c(-c2ccccc2)c2ccccn2c(=O)n1CCCCN1CCCC(c2c[nH]c3ccccc23)C1 (configuration not stated)
D = N#Cc1ccc2[nH]cc(CCCN(C3CCC3)C3COc4c(F)ccc(C(N)=O)c4C3)c2c1 (single isomer, unassigned; (-))
Task: Ascending sort, Ki. List the labels according to the requested ordering.
Output: D, B, C, A

P = O=C(NC1CC1)c1ccc(F)c2c1CC(N(CCCc1c[nH]c3ccc(F)cc13)C1CCC1)CO2 (configuration not stated)
Q = O=c1c(-c2ccc(Cl)cc2)c2ccccn2c(=O)n1CCCCN1CC=C(c2c[nH]c3ccc(Br)cc23)CC1
Task: For this pair, P and Q , which shows a numerically higher Ki? Record your answer as the label of the chosen record.
Output: Q
(Q: 1000 nM, P: 8.05 nM)

A = CN(C)CCC(Oc1ccc(NC(=O)Nc2ccc3c(ccn3C)c2)cc1)c1ccccc1 (configuration not stated)
B = COc1ccc2[nH]cc(C3CCN(CCCCn4c(=O)c(-c5ccc(C)cc5)c5n(c4=O)CCCC5)CC3)c2c1
Task: Decide: A or B , by lowest recorded Ki. Record your answer as the label of the chosen record.
Output: A

A = Clc1cccc(N2CCN(CCc3ccccc3)CC2)c1
B = COc1ccc(CN2CCN(CCOc3cccc4nc(C)ccc34)CC2)cc1
C = COc1ccc2[nH]cc(C3CCN(CCCCn4c(=O)c(-c5ccc(F)cc5)c5n(c4=O)CCCC5)CC3)c2c1
D = Cc1ccc(C2CN(C)Cc3cc(OCCCN4CCC(F)CC4)ccc32)cc1 (configuration not stated)
E = Clc1ccc(C2CN3CCCC3c3cc(OCCCN4CCCCC4)ccc32)cc1 (racemic)
Task: Ascending sort, Ki. List the labels according to the requested ordering.
Output: D, E, C, B, A
(D: 4.4 nM, E: 6.3 nM, C: 76.1 nM, B: 398 nM, A: 802 nM)

I = Cc1ccc2c3c(ccc2n1)OC[C@H](CN1CCN(c2ccc4cc(C#N)ccc4n2)CC1)O3
II = COc1ccc(CCN[C@@H]2CO[C@H](C(c3ccccc3)c3ccccc3)C2)cc1
Task: For this pair, I and II , which shows a numerically higher Ki? Record your answer as the label of the chosen record.
Output: II
(II: 358 nM, I: 13.8 nM)

a = OC(CCN1CCN(c2ccc3sccc3c2)CC1)c1csc2ccccc12 (configuration not stated)
b = COc1ccc(OC(CC2CCNCC2)c2ccccc2)cc1 (configuration not stated)
Task: Decide: a or b , by lowest recorded Ki. Record your answer as the label of the chosen record.
Output: a
(a: 3.2 nM, b: 47 nM)
